We begin with IC50 values for Oxysterols receptor LXR-beta (Homo sapiens), as collected from the published literature.
measured-attribute: IC50 (nM)

{"item-smiles": "CCS(=O)(=O)c1cccc(Oc2cccc(-c3ncnc4c(C(F)(F)F)cccc34)c2)c1", "IC50, nM": 101}

1 = Cc1ccc(CC(=O)O)c(NCc2cccc(-c3c(Cc4ccccc4)cnc4c(C(F)(F)F)cccc34)c2)c1C
2 = O=C(O)c1ccc(OCc2cccc(-c3c(Cc4ccccc4)cnc4c(C(F)(F)F)cccc34)c2)c(Cl)c1
3 = CCc1nc2c(C(F)(F)F)cccn2c1-c1ccc(Oc2cccc(S(=O)(=O)CC)c2)cc1
Descending sort on IC50 required. The response must list the labels following the requested ordering.
2, 3, 1
(2: 359 nM, 3: 230 nM, 1: 131 nM)

A = CS(=O)(=O)c1cccc(Oc2ccc(-n3c(C(F)(F)F)nc4c(C(F)(F)F)cccc43)cc2)c1
B = CCc1nc2c(Cl)cccn2c1-c1ccc(Oc2cccc(S(=O)(=O)CC)c2)cc1
Of A and B , which carries the smaller reported IC50 figure? Answer by quoting the chosen item's label.
A

* * *

We begin with IC50 values for Oxysterols receptor LXR-beta (Homo sapiens, UniProt P55055), as collected from the published literature.
measured-attribute: IC50 (nM)

Example entries begin here.
{"molecule": "Cc1cnc2c(C(F)(F)F)cccc2c1-c1cncc(CNc2cccc3c(CC(=O)O)cccc23)c1", "value-observed": 7220}
{"molecule": "Cc1cnc2c(C(F)(F)F)cccc2c1-c1cccc(CNc2cccc3c(C(=O)O)cccc23)c1", "value-observed": 129}
{"molecule": "CC(C)N1C(=O)N(S(=O)(=O)c2ccccc2)CC1c1cccc(-c2cccc(S(=O)(=O)NC(C)(C)C)c2)c1 (centres unmarked)", "value-observed": 410}
{"molecule": "CCS(=O)(=O)c1cccc(Oc2ccc(F)c(-c3ncnc4c(C(F)(F)F)cccc34)c2)c1", "value-observed": 8}

1 = CCc1nc2c(C#N)cccn2c1-c1cccc(Oc2cccc(S(=O)(=O)NC)c2)c1
2 = Cc1nc(-c2cc(Oc3cccc(S(C)(=O)=O)c3)ccc2Cl)c2cccc(C(F)(F)F)c2n1
3 = NCCCS(=O)(=O)c1cccc(Oc2ccc(F)c(-c3ncnc4c(Cl)cccc34)c2)c1
Sort (3 molecules) by IC50: min first. The response must list the labels following the requested ordering.
2, 1, 3

* * *

We begin with IC50 values for Oxysterols receptor LXR-beta (Homo sapiens), as collected from the published literature.
measured-attribute: IC50 (nM)

Example entries begin here.
{"compound": "O=C(O)Cc1cccc2c(NCc3cccc(-c4ccnc5c(C(F)(F)F)cccc45)c3)cccc12", "system": "Oxysterols receptor LXR-beta (Homo sapiens)", "IC50 / nM": 15}
{"compound": "CC(C)c1cnc2c(Cl)cccc2c1-c1cccc(OC(=O)c2cccc(CS(C)(=O)=O)c2)c1", "system": "Oxysterols receptor LXR-beta (Homo sapiens)", "IC50 / nM": 5.6}
{"compound": "CS(=O)(=O)Nc1cccc(-c2ccc(CN(Cc3ccccc3)S(=O)(=O)c3ccccc3C(F)(F)F)s2)c1", "system": "Oxysterols receptor LXR-beta (Homo sapiens)", "IC50 / nM": 126}
{"compound": "Cc1oncc1S(=O)(=O)N1CC(c2cccc(-c3cccc(S(C)(=O)=O)c3)c2)N(C(C)C)C1=O (stereo not shown)", "system": "Oxysterols receptor LXR-beta (Homo sapiens)", "IC50 / nM": 160}

P = Cc1nc(-c2cc(Oc3cccc(S(=O)(=O)CCCCC#N)c3)ccc2Cl)c2cccc(C(F)(F)F)c2n1
Q = CCS(=O)(=O)c1cccc(C(=O)Oc2cccc(-c3c(C(C)C)cnc4c(Cl)cccc34)c2)c1
R = CS(=O)(=O)c1cccc(Oc2cccc(-c3c(Cc4ccccc4)nc4c(C(F)(F)F)ccnn34)c2)c1
Sort (3 compounds) by IC50: min first. The response must list the labels following the requested ordering.
R, Q, P

* * *

We begin with IC50 values for Oxysterols receptor LXR-beta (Homo sapiens), as collected from the published literature.
measured-attribute: IC50 (nM)

Example entries begin here.
{"compound": "Cc1nc2cccc(C(F)(F)F)c2nc1-c1ccc(Oc2cccc(S(C)(=O)=O)c2)cc1", "measured-attribute": "IC50", "value-observed": 1550}
{"compound": "CCS(=O)(=O)c1cccc(Oc2ccc(-n3cnc4c(C(F)(F)F)cccc43)c(C)c2)c1", "measured-attribute": "IC50", "value-observed": 634}
{"compound": "CC(C)c1nc2c(C#N)cccn2c1-c1cccc(OCc2cccc(S(C)(=O)=O)c2)c1", "measured-attribute": "IC50", "value-observed": 1100}
{"compound": "CC(C)(C)OC(=O)N1CC[C@@H](c2ccccc2)[C@H](c2cccc(-c3cccc(S(C)(=O)=O)c3)c2)C1 (relative stereo)", "measured-attribute": "IC50", "value-observed": 25}
{"compound": "CS(=O)(=O)c1cc(-c2cccc(C3CN(S(=O)(=O)c4ccccc4)C(=O)N3c3ccccc3)c2)ccc1CO (stereo not drawn)", "measured-attribute": "IC50", "value-observed": 29}

1 = Cc1nnc([C@@](F)([C@@H]2Cc3[nH]c4ccc(Cl)cc4c3C2)S(=O)(=O)c2cccc(N(C)C)c2)o1 (racemic)
2 = Cc1nc2c(Cl)cccc2n1-c1cccc(Oc2cc(S(C)(=O)=O)ccc2Br)c1
Compare 1 and 2 by numeric IC50 and name the larger one. Answer by quoting the chosen item's label.
2

1 = CS(=O)(=O)c1cc(F)cc(Oc2ccc(-n3cnc4c(C(F)(F)F)cccc43)c(Cl)c2)c1
2 = Cc1cc(NCc2cncc(-c3c(Cc4ccccc4)cnc4c(C(F)(F)F)cccc34)c2)c(C)cc1CC(=O)O
Of 1 and 2 , which carries the smaller reported IC50 figure? Answer by quoting the chosen item's label.
2

a = CC(C)CN(Cc1cc(-c2cncc(S(C)(=O)=O)c2)cs1)S(=O)(=O)c1ccccc1Cl
b = CC(C)CN(Cc1ccc(-c2cccc(S(C)(=O)=O)c2)cn1)S(=O)(=O)c1ccccc1Cl
c = CC(C)CN(Cc1cccc(-c2cccc(S(C)(=O)=O)c2)n1)S(=O)(=O)c1ccccc1Cl
d = CS(=O)(=O)c1cc(Oc2ccc(Cl)c(-c3ncnc4c(Cl)cccc34)c2)ccc1C(N)=O
Descending sort on IC50 required. The response must list the labels following the requested ordering.
d, a, c, b

* * *

pIC50: −log10 of the molar value.
We begin with pIC50 values for Oxysterols receptor LXR-beta (Homo sapiens), as collected from the published literature.
measured-attribute: pIC50

a = CCCS(=O)(=O)c1cccc(Oc2cccc(-n3c(C)nc4c(Cl)cccc43)c2)c1
b = O=C(O)c1ccc(OCc2cccc(-c3c(Cc4ccccc4)cnc4c(C(F)(F)F)cccc34)c2)c(F)c1
Compare a and b by numeric pIC50 and name the larger one. Answer by quoting the chosen item's label.
a
(a: 8.43, b: 6.50)

I = Cc1nc2c(C(F)(F)F)cccc2nc1-c1ccc(-c2cccc(S(C)(=O)=O)c2)cc1
II = CC(C)C[C@H](NC(=O)c1cccc(COc2cccc(-c3c(Cc4ccccc4)cnc4c(C(F)(F)F)cccc34)c2)c1)C(=O)O
III = Cc1nc2c(Cl)cccc2nc1Oc1cccc(-c2cccc(S(C)(=O)=O)c2)c1
Descending sort on pIC50 required. The response must list the labels following the requested ordering.
I, III, II
(I: 7.31, III: 6.97, II: 6.26)

a = Cc1cc(Oc2cc(F)cc(S(C)(=O)=O)c2)ccc1-n1c(C)nc2c(C(F)(F)F)cccc21
b = CS(=O)(=O)c1cc(F)cc(Oc2ccc(F)c(-c3ncnc4c(C(F)(F)F)cccc34)c2)c1
c = Cc1nc2c(Cl)ccc(Cl)c2nc1-c1ccc(-c2cccc(S(C)(=O)=O)c2)cc1
Sort (3 molecules) by pIC50: min first. The response must list the labels following the requested ordering.
a, c, b
(a: 6.39, c: 7.00, b: 7.46)

1 = NS(=O)(=O)c1cccc(Oc2ccc(F)c(-c3ncnc4c(Cl)cccc34)c2)c1
2 = Cc1nc2c(C(F)(F)F)cccc2n1-c1cccc(Oc2ccc(S(=O)(=O)CCCO)cc2)c1
Compare 1 and 2 by numeric pIC50 and name the larger one. Answer by quoting the chosen item's label.
1

* * *

We begin with IC50 values for UniProtKB P55055, as collected from the published literature.
measured-attribute: IC50 (nM)

{"compound": "Cc1cc(NCc2cccc(-c3c(C)cnc4c(C(F)(F)F)cccc34)c2)c(C)cc1CC(=O)O", "system": "UniProtKB P55055", "IC50, nM": 9}
{"compound": "O=C(O)c1c(NCc2cccc(-c3c(Cc4ccccc4)cnc4c(C(F)(F)F)cccc34)c2)cccc1C(F)(F)F", "system": "UniProtKB P55055", "IC50, nM": 66}
{"compound": "CCS(=O)(=O)N1CC(c2cccc(-c3cccc(S(C)(=O)=O)c3)c2)N(C(C)C)C1=O (centres unmarked)", "system": "UniProtKB P55055", "IC50, nM": 106}
{"compound": "COc1cccc2c(-c3cc(Oc4cccc(S(C)(=O)=O)c4)ccc3Cl)ncnc12", "system": "UniProtKB P55055", "IC50, nM": 344}
{"compound": "CCCS(=O)(=O)c1cccc(Oc2ccc(Cl)c(-n3c(C)nc4c(Cl)cccc43)c2)c1", "system": "UniProtKB P55055", "IC50, nM": 164}

a = CCS(=O)(=O)c1cccc(Oc2ccc(Cl)c(-c3nc4c(C(F)(F)F)cccc4nc3C)c2)c1
b = CC(C)S(=O)(=O)c1cccc(Oc2cccc(-n3c(C(F)(F)F)nc4c(C(F)(F)F)cccc43)c2)c1
Of a and b , which carries the smaller reported IC50 figure? Answer by quoting the chosen item's label.
a
(a: 29 nM, b: 92 nM)
